B1: PhoQ; a variant is named by its letters at X, in order, P23837 (parent)
chain: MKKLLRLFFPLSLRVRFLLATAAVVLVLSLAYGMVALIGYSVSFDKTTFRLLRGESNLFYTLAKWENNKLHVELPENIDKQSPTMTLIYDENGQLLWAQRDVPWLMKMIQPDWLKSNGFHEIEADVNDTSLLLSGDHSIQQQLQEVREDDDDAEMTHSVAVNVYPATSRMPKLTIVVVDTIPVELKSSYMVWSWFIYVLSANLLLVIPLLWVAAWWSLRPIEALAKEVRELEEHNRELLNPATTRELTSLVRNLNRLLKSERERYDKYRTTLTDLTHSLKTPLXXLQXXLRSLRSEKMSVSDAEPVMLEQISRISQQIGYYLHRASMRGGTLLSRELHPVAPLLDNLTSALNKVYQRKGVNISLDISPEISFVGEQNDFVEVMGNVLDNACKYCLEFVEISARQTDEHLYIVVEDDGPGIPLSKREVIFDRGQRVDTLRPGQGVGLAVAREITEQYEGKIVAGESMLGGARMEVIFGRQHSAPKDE

- Variants of: B1
- assay.text: enrichment ratio after two sorts for PhoP signalling (ratio (wild type AVST 3.29)); higher = more functional
- condition.summary: with PhoP (E. coli)
Whole data set: some 140,000 sequences, median “enrichment ratio after two sorts for PhoP signalling” near 0, cut for the highest 2% near 11. The sample as a whole holds a higher share of the highest values than the screen did.
In this section we review reported enrichment ratio values for a set of variants.
property.name: enrichment ratio

[[record]]
variant_name = "HPLG"
property_name = "enrichment ratio"
reported_measurement = "≤ 0.25"

[[record]]
variant_name = "TFHR"
property_name = "enrichment ratio"
reported_measurement = "≤ 0.25"

[[record]]
variant_name = "HEES"
property_name = "enrichment ratio"
reported_measurement = "≤ 0.25"

[[record]]
variant_name = "HYLG"
property_name = "enrichment ratio"
reported_measurement = "≤ 0.25"

[[record]]
variant_name = "PHQA"
property_name = "enrichment ratio"
reported_measurement = "≤ 0.25"

[[record]]
variant_name = "IIML"
property_name = "enrichment ratio"
reported_measurement = "≤ 0.25"

[[record]]
variant_name = "RPSV"
property_name = "enrichment ratio"
reported_measurement = "≤ 0.25"

[[record]]
variant_name = "CLLN"
property_name = "enrichment ratio"
reported_measurement = "≤ 0.25"

[[record]]
variant_name = "LNTP"
property_name = "enrichment ratio"
reported_measurement = "≤ 0.25"

[[record]]
variant_name = "IVRK"
property_name = "enrichment ratio"
reported_measurement = "≤ 0.25"

[[record]]
variant_name = "VRDA"
property_name = "enrichment ratio"
reported_measurement = "≤ 0.25"

[[record]]
variant_name = "IDHP"
property_name = "enrichment ratio"
reported_measurement = "≤ 0.25"

[[record]]
variant_name = "YKFA"
property_name = "enrichment ratio"
reported_measurement = "≤ 0.25"

[[record]]
variant_name = "VDIK"
property_name = "enrichment ratio"
reported_measurement = "≤ 0.25"

[[record]]
variant_name = "MPLG"
property_name = "enrichment ratio"
reported_measurement = "≤ 0.25"

[[record]]
variant_name = "SPML"
property_name = "enrichment ratio"
reported_measurement = "≤ 0.25"

[[record]]
variant_name = "TGWM"
property_name = "enrichment ratio"
reported_measurement = 0.965

[[record]]
variant_name = "VFLV"
property_name = "enrichment ratio"
reported_measurement = "≤ 0.25"

[[record]]
variant_name = "MELG"
property_name = "enrichment ratio"
reported_measurement = 22.3

[[record]]
variant_name = "RKAE"
property_name = "enrichment ratio"
reported_measurement = "≤ 0.25"

[[record]]
variant_name = "AILV"
property_name = "enrichment ratio"
reported_measurement = 5.12

[[record]]
variant_name = "SIML"
property_name = "enrichment ratio"
reported_measurement = 6.65

[[record]]
variant_name = "TELG"
property_name = "enrichment ratio"
reported_measurement = 27.4

[[record]]
variant_name = "GLLN"
property_name = "enrichment ratio"
reported_measurement = "≤ 0.25"

[[record]]
variant_name = "QPDT"
property_name = "enrichment ratio"
reported_measurement = "≤ 0.25"

[[record]]
variant_name = "SAKL"
property_name = "enrichment ratio"
reported_measurement = "≤ 0.25"

[[record]]
variant_name = "SLCN"
property_name = "enrichment ratio"
reported_measurement = 11.5

[[record]]
variant_name = "FPHE"
property_name = "enrichment ratio"
reported_measurement = "≤ 0.25"

[[record]]
variant_name = "YMKT"
property_name = "enrichment ratio"
reported_measurement = "≤ 0.25"

[[record]]
variant_name = "HELG"
property_name = "enrichment ratio"
reported_measurement = 12.3

[[record]]
variant_name = "SLML"
property_name = "enrichment ratio"
reported_measurement = 7.15

[[record]]
variant_name = "KCLV"
property_name = "enrichment ratio"
reported_measurement = "≤ 0.25"

[[record]]
variant_name = "SHLN"
property_name = "enrichment ratio"
reported_measurement = 2.15

[[record]]
variant_name = "VKNA"
property_name = "enrichment ratio"
reported_measurement = "≤ 0.25"

[[record]]
variant_name = "WLCN"
property_name = "enrichment ratio"
reported_measurement = "≤ 0.25"

